biological target: Neutrophil collagenase (Homo sapiens, UniProt P22894); assay: Inhibition of human recombinant MMP8 by fluorogenic substrate assay
Sequence (P22894 whole entry): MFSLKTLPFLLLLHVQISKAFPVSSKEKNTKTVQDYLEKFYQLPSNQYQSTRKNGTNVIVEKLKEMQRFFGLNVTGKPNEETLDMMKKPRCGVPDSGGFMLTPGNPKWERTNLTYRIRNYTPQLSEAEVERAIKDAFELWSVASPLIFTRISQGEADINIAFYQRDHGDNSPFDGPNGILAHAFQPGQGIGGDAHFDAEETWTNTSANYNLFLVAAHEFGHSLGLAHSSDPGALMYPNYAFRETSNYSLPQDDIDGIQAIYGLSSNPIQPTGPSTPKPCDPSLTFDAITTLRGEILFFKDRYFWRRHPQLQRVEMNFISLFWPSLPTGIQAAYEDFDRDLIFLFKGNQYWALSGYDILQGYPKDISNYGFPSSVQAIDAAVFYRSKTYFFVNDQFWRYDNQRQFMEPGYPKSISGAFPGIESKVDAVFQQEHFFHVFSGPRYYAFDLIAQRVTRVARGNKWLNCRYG
pIC50: −log10 of the molar value.
The compounds listed here are annotated with their pIC50.
Value Type: pIC50

[
  {
    "Compound": "CCCCCCOc1ccc(C(CC(=O)O)C(N)=O)cc1 (centres undefined)",
    "Inequality Operator": "=",
    "Quantitative Readout": 6.17
  },
  {
    "Compound": "Oc1nc(SCc2ccc(Cl)cc2)nc2c1CCC2",
    "Inequality Operator": "<",
    "Quantitative Readout": 4.00
  },
  {
    "Compound": "O=C(O)CCC(NS(=O)(=O)c1ccc(-c2ccccc2)cc1)C(=O)O (centres undefined)",
    "Inequality Operator": "=",
    "Quantitative Readout": 7.62
  },
  {
    "Compound": "COc1ccc(CSc2nc(C)cc(O)n2)cc1",
    "Inequality Operator": "<",
    "Quantitative Readout": 4.00
  }
]

---

target: Macrophage metalloelastase (Homo sapiens) (UniProt P39900); assay: Inhibition of human recombinant MMP12 at 200 uM by HxBPyne probe-based competitive activity based protein profiling assay in presence of 5 uM HxBpane competitor
Sequence (P39900 106-470 limits assumed): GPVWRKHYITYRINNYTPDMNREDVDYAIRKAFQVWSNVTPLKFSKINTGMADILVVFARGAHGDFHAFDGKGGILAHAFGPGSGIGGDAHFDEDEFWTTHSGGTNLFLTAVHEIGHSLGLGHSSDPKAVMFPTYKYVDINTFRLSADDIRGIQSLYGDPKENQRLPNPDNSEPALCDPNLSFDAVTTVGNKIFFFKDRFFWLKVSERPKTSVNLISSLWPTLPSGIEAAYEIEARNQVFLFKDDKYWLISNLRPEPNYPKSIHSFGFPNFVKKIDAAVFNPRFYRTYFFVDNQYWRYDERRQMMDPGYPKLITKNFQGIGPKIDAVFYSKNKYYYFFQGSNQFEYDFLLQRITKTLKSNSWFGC
The source made the active and inactive calls. The calls are words filed in the database; no cut-off is given here.
Outcome codes: active, inactive

[
  {
    "Molecule": "COc1ccc(CSc2nc(C)cc(O)n2)cc1",
    "Category Label": "inactive"
  },
  {
    "Molecule": "Oc1nc(SCc2ccc(Cl)cc2)nc2c1CCC2",
    "Category Label": "inactive"
  },
  {
    "Molecule": "O=C(O)CCC(NS(=O)(=O)c1ccc(-c2ccccc2)cc1)C(=O)O (centres undefined)",
    "Category Label": "active"
  },
  {
    "Molecule": "CCCCCCOc1ccc(C(CC(=O)O)C(N)=O)cc1 (centres undefined)",
    "Category Label": "active"
  }
]

---

molecular target: Stromelysin-1 (Homo sapiens) (UniProt P08254); assay: Inhibition of human recombinant MMP3 at 200 uM by HxBPyne probe-based competitive activity based protein profiling assay in presence of 5 uM HxBpane competitor
Sequence (P08254 100-477 limits assumed): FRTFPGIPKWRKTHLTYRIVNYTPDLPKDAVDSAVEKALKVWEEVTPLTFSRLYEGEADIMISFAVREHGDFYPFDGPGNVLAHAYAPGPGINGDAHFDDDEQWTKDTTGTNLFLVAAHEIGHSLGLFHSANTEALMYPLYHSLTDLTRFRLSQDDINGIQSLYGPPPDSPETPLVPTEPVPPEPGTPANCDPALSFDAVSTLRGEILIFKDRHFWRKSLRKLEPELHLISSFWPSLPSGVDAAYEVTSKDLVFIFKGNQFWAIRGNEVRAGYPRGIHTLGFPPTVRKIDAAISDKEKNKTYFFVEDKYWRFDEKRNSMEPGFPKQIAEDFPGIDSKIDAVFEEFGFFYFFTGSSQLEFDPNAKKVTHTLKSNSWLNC
The source made the active and inactive calls. The rule behind the calls is not given here.
Classes used: active, inactive

[
  {
    "Molecule": "Oc1nc(SCc2ccc(Cl)cc2)nc2c1CCC2",
    "System Name": "Stromelysin-1 (Homo sapiens) (UniProt P08254)",
    "Category Label": "inactive"
  },
  {
    "Molecule": "COc1ccc(CSc2nc(C)cc(O)n2)cc1",
    "System Name": "Stromelysin-1 (Homo sapiens) (UniProt P08254)",
    "Category Label": "inactive"
  },
  {
    "Molecule": "O=C(O)CCC(NS(=O)(=O)c1ccc(-c2ccccc2)cc1)C(=O)O (centres undefined)",
    "System Name": "Stromelysin-1 (Homo sapiens) (UniProt P08254)",
    "Category Label": "active"
  },
  {
    "Molecule": "CCCCCCOc1ccc(C(CC(=O)O)C(N)=O)cc1 (centres undefined)",
    "System Name": "Stromelysin-1 (Homo sapiens) (UniProt P08254)",
    "Category Label": "active"
  }
]

---

Measured pIC50 values are reported for all entries that follow.
molecular target: Matrix metalloproteinase-9 (Homo sapiens); experiment: Inhibition of human recombinant MMP9 by fluorogenic substrate assay
Sequence (P14780 whole entry): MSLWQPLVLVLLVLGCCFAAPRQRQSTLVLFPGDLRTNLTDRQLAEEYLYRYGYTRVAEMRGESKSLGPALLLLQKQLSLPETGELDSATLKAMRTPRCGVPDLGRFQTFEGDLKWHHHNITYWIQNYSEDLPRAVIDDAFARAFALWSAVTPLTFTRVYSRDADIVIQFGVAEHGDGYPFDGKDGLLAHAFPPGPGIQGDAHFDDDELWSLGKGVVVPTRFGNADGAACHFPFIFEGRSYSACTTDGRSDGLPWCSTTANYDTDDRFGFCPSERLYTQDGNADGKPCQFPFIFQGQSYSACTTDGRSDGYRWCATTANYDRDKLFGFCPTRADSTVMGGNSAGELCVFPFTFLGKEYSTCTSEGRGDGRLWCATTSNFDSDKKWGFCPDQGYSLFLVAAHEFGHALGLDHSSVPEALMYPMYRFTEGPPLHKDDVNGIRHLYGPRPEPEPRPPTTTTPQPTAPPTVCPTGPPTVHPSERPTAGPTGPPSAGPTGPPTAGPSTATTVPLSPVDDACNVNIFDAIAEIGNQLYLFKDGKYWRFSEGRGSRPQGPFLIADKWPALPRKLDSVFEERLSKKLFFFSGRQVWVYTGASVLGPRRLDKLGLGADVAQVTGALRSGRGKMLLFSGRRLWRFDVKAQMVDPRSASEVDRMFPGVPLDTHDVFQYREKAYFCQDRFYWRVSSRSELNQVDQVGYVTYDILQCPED
pIC50: −log10 of the molar value.
Value Type: pIC50

[
  {
    "Compound": "COc1ccc(CSc2nc(C)cc(O)n2)cc1",
    "Value Type": "pIC50",
    "Inequality Operator": "<",
    "Quantitative Readout": 4.00
  },
  {
    "Compound": "CCCCCCOc1ccc(C(CC(=O)O)C(N)=O)cc1 (centres undefined)",
    "Value Type": "pIC50",
    "Inequality Operator": "=",
    "Quantitative Readout": 6.80
  },
  {
    "Compound": "O=C(O)CCC(NS(=O)(=O)c1ccc(-c2ccccc2)cc1)C(=O)O (centres undefined)",
    "Value Type": "pIC50",
    "Inequality Operator": "=",
    "Quantitative Readout": 4.85
  },
  {
    "Compound": "Oc1nc(SCc2ccc(Cl)cc2)nc2c1CCC2",
    "Value Type": "pIC50",
    "Inequality Operator": "<",
    "Quantitative Readout": 4.00
  }
]
